Reference source: patent US5677325A

# Tested Target: glycine B site (Rattus norvegicus)
# Construct: from tissue; host or cells: rat brain without cerebellum (Wistar males), Triton-treated membranes
# Assay Text: Binding of [^3 H]-glycine to rat brain membranes (glycine B site)
# Parameters: species or system rat (Wistar)
# Protocol Conditions: [^3 H]-glycine 10 nM, 20 minutes at 4° C., concentration inhibiting radioligand binding by 50%, listed as compound of the invention
Observed Property: IC50 (µM)
Express your answer in µM, writing the number without its unit.

Hey, glycine B site (Rattus norvegicus) data for O=C1CNCN1O [Example 1, 3-Hydroxy-4-imidazolidinone] : IC50 came out at 6.8

---

# Tested Target: NMDA channel
# Assay Text: Binding of [^3 H]-MK 801 to rat brain membranes (NMDA channel), stimulation or inhibition
# Protocol Conditions: read-out: IC50, [^3 H]-MK 801 binding; [^3 H]-MK 801 1 nM; 120 minutes at 20° C.; antagonists
Observed Property: pIC50
Value format note: pIC50 is -log10 of concentration (mol/L); just state the number.

Looking up N[C@@H]1CCN(O)C1=O [(+)-HA966] , I found its pIC50 recorded as 5.17

In plain terms, O=c1[nH]c2cc(Cl)ccc2c(O)c1-c1cccc(Oc2ccccc2)c1 has a documented pIC50 of 7.66
